Species on record: Rattus norvegicus
METHOD NOTES: Open TG-GATES - Regimen: Daily Repeat
Assay type: toxicity, organism-based, Sprague-Dawley
Parameters: regimen Daily Repeat, gender Male, age 6 weeks
ASSAY CONDITIONS: in vivo, po, 0 mg/kg, […], tissue Plasma, route gavage, dose level Control, time 28 day
Please provide measured RALB for the entries that follow.
Give your result in g/dL as a bare value.

Short answer for C[C@]12CCC(=O)C=C1CC[C@@H]1[C@@H]2CC[C@@]2(C)[C@H]1CC[C@]2(C)O : RALB was 2.8

For CC(C)(S)[C@@H](N)C(=O)O the compound record lists RALB as 2.9

Input CCN1CCCC1CNC(=O)c1cc(S(N)(=O)=O)ccc1OC (stereo not given) [SULPIRIDE] . Output RALB: 2.8

# RALB (compound: CC(C)C(=O)Nc1ccc([N+](=O)[O-])c(C(F)(F)F)c1 [FLUTAMIDE] ) is 3.5

Measured RALB of CN1C(=O)OC(C)(C)C1=O : 2.8

###

Field: PT. Provide a value for each of the compounds that follow.
Organism: Rattus norvegicus
METHOD NOTES: Open TG-GATES - Regimen: Daily Repeat
Type: toxicity, organism-based, Sprague-Dawley
Parameters: regimen Daily Repeat, gender Male, age 6 weeks
ASSAY CONDITIONS: in vivo, po, 0 mg/kg, […], tissue Blood, route gavage, dose level Control, time 28 day
Numeric only. Scale: s

For this compound ( CC(=O)Oc1cc(C(C)C)c(OCCN(C)C)cc1C [MOXISYLYTE] ), measured PT is 15.9

Summary for this compound, CCSCC[C@H](N)C(=O)O [ETHIONINE] : PT is 12.4

Measured PT, O=C(O)c1cccnc1 [NIACIN] : 16.5

PT measured on CC(C)(S)[C@@H](N)C(=O)O [PENICILLAMINE] = 14.1

Record summary for CC(=N)S [THIOACETAMIDE] : reported PT = 10.8

Recorded PT (compound Nc1nc(N)c2nc(-c3ccccc3)c(N)nc2n1 ): 13

Given item CCN1CCCC1CNC(=O)c1cc(S(N)(=O)=O)ccc1OC (stereo not drawn) [SULPIRIDE] , the value recorded as its PT is 12.9

Lookup result for CC(C)C(=O)Nc1ccc([N+](=O)[O-])c(C(F)(F)F)c1 [FLUTAMIDE] ; measured PT: 12.2

###

Task for the reader: assign each of the following molecules its reported MCHC.
Species: Rattus norvegicus
METHOD NOTES: Open TG-GATES - Regimen: Single
Type: toxicity, organism-based, Sprague-Dawley
Set-up: regimen Single, gender Male, age 6 weeks
ASSAY CONDITIONS: in vivo, po, 0 mg/kg, 3 h, tissue Blood, route gavage, dose level Control
Record the value in %, omitting the unit from your answer.

For C[C@]12CCC(=O)C=C1CC[C@@H]1[C@@H]2CC[C@@]2(C)[C@H]1CC[C@]2(C)O the molecule record lists MCHC as 34

Query C#C[C@]1(O)CC[C@H]2[C@@H]3CCc4cc(O)ccc4[C@H]3CC[C@@]21C yields MCHC of 33.1

CCc1oc2ccccc2c1C(=O)c1cc(I)c(O)c(I)c1 has a reported MCHC of 33.6

###

Organism: Rattus norvegicus
METHOD NOTES: Open TG-GATES - Regimen: Daily Repeat
Assay type: toxicity, organism-based, Sprague-Dawley
Design: regimen Daily Repeat, gender Male, age 6 weeks
ASSAY CONDITIONS: in vivo, po, 0 mg/kg, […], route gavage, dose level Control, time 14 day
PROPERTY NAME: TERMINAL_BW (g)
Return type: number; implicit unit g.

For Nc1nc(N)c2nc(-c3ccccc3)c(N)nc2n1 the compound record lists TERMINAL_BW as 328

# compound CCSCC[C@H](N)C(=O)O [ETHIONINE] ; its TERMINAL_BW = 307.1

Entry C[C@]12CCC(=O)C=C1CC[C@@H]1[C@@H]2CC[C@@]2(C)[C@H]1CC[C@]2(C)O [METHYLTESTOSTERONE] — recorded TERMINAL_BW = 322

Lab book: TERMINAL_BW of O=C(O)c1cccnc1 [NIACIN] noted as 327.5

// recorded TERMINAL_BW for CCc1oc2ccccc2c1C(=O)c1cc(I)c(O)c(I)c1 [BENZIODARONE] : 335.3

For this compound ( CC(C)C(=O)Nc1ccc([N+](=O)[O-])c(C(F)(F)F)c1 [FLUTAMIDE] ), measured TERMINAL_BW is 303.3

Value of measured TERMINAL_BW for the entry C#C[C@]1(O)CC[C@H]2[C@@H]3CCc4cc(O)ccc4[C@H]3CC[C@@]21C [ETHINYL ESTRADIOL] : 321.6

GET /value?item= CCC(C)(C)C(=O)O[C@H]1C[C@@H](C)C=C2C=C[C@H](C)[C@H](CC[C@@H]3C[C@@H](O)CC(=O)O3)[C@H]21 [SIMVASTATIN] &field=TERMINAL_BW returns 301

###

Organism: Rattus norvegicus
METHOD NOTES: Open TG-GATES - Regimen: Daily Repeat
Type: toxicity, organism-based, Sprague-Dawley
Design: regimen Daily Repeat, gender Male, age 6 weeks
ASSAY CONDITIONS: in vivo, po, 0 mg/kg, […], tissue Plasma, route gavage, dose level Control, time 14 day
PROPERTY NAME: BUN (mg/dL)
State just the number; it will be interpreted in mg/dL.

// BUN lookup, compound = CCN1CCCC1CNC(=O)c1cc(S(N)(=O)=O)ccc1OC (stereo unspecified) [SULPIRIDE] , result: 17

// recorded BUN for CCc1oc2ccccc2c1C(=O)c1cc(I)c(O)c(I)c1 [BENZIODARONE] : 19.6

BUN for C[C@](N)(Cc1ccc(O)c(O)c1)C(=O)O [METHYLDOPA] is 15.2

In plain terms, CC(=O)Oc1cc(C(C)C)c(OCCN(C)C)cc1C [MOXISYLYTE] has a documented BUN of 20

Item: CC(C)(S)[C@@H](N)C(=O)O [PENICILLAMINE] | BUN: 16.2

Record summary for C[C@]12CCC(=O)C=C1CC[C@@H]1[C@@H]2CC[C@@]2(C)[C@H]1CC[C@]2(C)O [METHYLTESTOSTERONE] : reported BUN = 16.4

###

Species on record: Rattus norvegicus
METHOD NOTES: Open TG-GATES - Regimen: Single
Type: toxicity, organism-based, Sprague-Dawley
Set-up: regimen Single, gender Male, age 6 weeks
ASSAY CONDITIONS: in vivo, po, 0 mg/kg, 24 h, tissue Plasma, route gavage, dose level Control
PROPERTY NAME: DBIL (mg/dL)
# output: bare number, implied unit mg/dL

The compound Nc1nc(N)c2nc(-c3ccccc3)c(N)nc2n1 showed DBIL equal to 0.01

Form field DBIL, entry CC(=O)Oc1cc(C(C)C)c(OCCN(C)C)cc1C : 0

Reported DBIL for CC(C)(S)[C@@H](N)C(=O)O was 0.01

Lab note: C[C@](N)(Cc1ccc(O)c(O)c1)C(=O)O gave DBIL of 0.008

Looking up CCc1oc2ccccc2c1C(=O)c1cc(I)c(O)c(I)c1 , I see its DBIL listed as 0.008

Lookup result for Oc1ncnc2[nH]ncc12 ; measured DBIL: 0.02

So for C[C@]12CCC(=O)C=C1CC[C@@H]1[C@@H]2CC[C@@]2(C)[C@H]1CC[C@]2(C)O , the logged DBIL turned out to be 0.02

The recorded DBIL for entry CC(=N)S [THIOACETAMIDE] equals 0.0425

Recorded result, CCN1CCCC1CNC(=O)c1cc(S(N)(=O)=O)ccc1OC (centres undefined) [SULPIRIDE] , DBIL: 0.012

###

Please respond with reported Ret for every item in the list.
Organism: Rattus norvegicus
METHOD NOTES: Open TG-GATES - Regimen: Single
Assay type: toxicity, organism-based, Sprague-Dawley
Design: regimen Single, gender Male, age 6 weeks
ASSAY CONDITIONS: in vivo, po, 0 mg/kg, 6 h, tissue Blood, route gavage, dose level Control
Please respond with the number in % and leave the unit unwritten.

Lab book: Ret of CC(C)(S)[C@@H](N)C(=O)O noted as 8.8

// Ret value for CCC(C)(C)C(=O)O[C@H]1C[C@@H](C)C=C2C=C[C@H](C)[C@H](CC[C@@H]3C[C@@H](O)CC(=O)O3)[C@H]21 : 9.2

Ret recorded for this compound, CC(=N)S [THIOACETAMIDE] , is 9.2

###

Organism: Rattus norvegicus
METHOD NOTES: Open TG-GATES - Regimen: Single
Format: toxicity, organism-based, Sprague-Dawley
Parameters: regimen Single, gender Male, age 6 weeks
ASSAY CONDITIONS: in vivo, po, 0 mg/kg, 9 h, tissue Blood, route gavage, dose level Control
PROPERTY NAME: Ret

Looking up CCC(C)(C)C(=O)O[C@H]1C[C@@H](C)C=C2C=C[C@H](C)[C@H](CC[C@@H]3C[C@@H](O)CC(=O)O3)[C@H]21 [SIMVASTATIN] , I found its Ret recorded as 10.2%

The compound listed as CC(C)(S)[C@@H](N)C(=O)O [PENICILLAMINE] shows Ret equal to 9.1%

Consider C[C@]12CCC(=O)C=C1CC[C@@H]1[C@@H]2CC[C@@]2(C)[C@H]1CC[C@]2(C)O [METHYLTESTOSTERONE] . Its measured Ret is 8.5%

Ret for CCN1CCCC1CNC(=O)c1cc(S(N)(=O)=O)ccc1OC (centres undefined) [SULPIRIDE] is 7.8%

Ret for CCSCC[C@H](N)C(=O)O [ETHIONINE] is 6.9%

get_value(item= O=C(O)c1cccnc1 [NIACIN] , readout=Ret) returns 8%

Lab note: measured Ret of CCc1oc2ccccc2c1C(=O)c1cc(I)c(O)c(I)c1 [BENZIODARONE] was 8.6%

Entry C#C[C@]1(O)CC[C@H]2[C@@H]3CCc4cc(O)ccc4[C@H]3CC[C@@]21C [ETHINYL ESTRADIOL] , Ret reported as 9.5%

Notebook: Nc1nc(N)c2nc(-c3ccccc3)c(N)nc2n1 , Ret read as 7.1%

Recorded Ret (compound O=C(N[C@H](CO)[C@H](O)c1ccc([N+](=O)[O-])cc1)C(Cl)Cl [CHLORAMPHENICOL] ): 8.4%

Input C[C@](N)(Cc1ccc(O)c(O)c1)C(=O)O [METHYLDOPA] . Output Ret: 10.4%

The measured Ret associated with CC(=O)Oc1cc(C(C)C)c(OCCN(C)C)cc1C [MOXISYLYTE] reads 8.2%

// CC(C)C(=O)Nc1ccc([N+](=O)[O-])c(C(F)(F)F)c1 [FLUTAMIDE] : Ret value = 7.7%

Just so you know, measured Ret for Oc1ncnc2[nH]ncc12 [ALLOPURINOL] came out at 7.5%

Source: ChEMBL document CHEMBL3885861
